Test: Intrinsic clearance in CD-1 mouse liver microsomes at 0.1 uM by LC-MS/MS analysis in presence of NADPH
Format: ADME
Experimental conditions: read-out: CLH
Experimental endpoint: microsomal CLint at 0.1 µM
Please state the number and follow it with the unit.

(Q) Consider the compound CC(C)NC(=O)[C@H]1CC[C@@H](n2/c(=N/C(=O)c3ccc(F)cc3)[nH]c3ccc(CN4CCC(C(C)(C)O)CC4)cc32)CC1 and give its recorded microsomal CLint at 0.1 µM.
(A) 891 µL/min/mg

###

Test: Apparent oral clearance in CD-1 mouse at 100 mg/kg, po administered through gavage by LC-MS/MS analysis
Format: ADME, organism-based
Parameters: dose 100 mg/kg, route oral
Experimental conditions: in vivo
Experimental endpoint: CL/F (mL/min/kg)
Give bare numbers, in mL/min/kg.

(Q) Report CL/F, nothing else, for this molecule: CC(C)NC(=O)[C@H]1CC[C@@H](n2/c(=N/C(=O)c3ccc(F)cc3)[nH]c3ccc(CN4CCC(C(C)(C)O)CC4)cc32)CC1
(A) 77.2

###

Test: Oral bioavailability in CD-1 mouse at 100 mg/kg administered through gavage by LC-MS/MS analysis relative to 2 mg/kg, iv dose
Format: ADME, organism-based
Experimental conditions: in vivo
Experimental endpoint: bioavailability
Mention the unit after the number when you answer.

(Q) Supply measured bioavailability of CC(C)NC(=O)[C@H]1CC[C@@H](n2/c(=N/C(=O)c3ccc(F)cc3)[nH]c3ccc(CN4CCC(C(C)(C)O)CC4)cc32)CC1 in your reply.
(A) 120%

###

Test: Intrinsic clearance in CD-1 mouse liver microsomes at 1 uM by LC-MS/MS analysis in absence of NADPH
Format: ADME
Experimental conditions: read-out: CLH
Experimental endpoint: microsomal CLint at 1 µM

(Q) For the molecule CC(C)NC(=O)[C@H]1CC[C@@H](n2/c(=N/C(=O)c3ccc(F)cc3)[nH]c3ccc(CN4CCC(C(C)(C)O)CC4)cc32)CC1 , report microsomal CLint at 1 µM.
(A) 50 µL/min/mg

###

Exercise: for every item that follows, state its recorded Km.
System: Plasma
Test: Drug metabolism in CD-1 mouse plasma assessed as hydrolysis metabolite formation rate by LC-MS/MS analysis
Type: ADME, cell-free
Experimental conditions: read-out: Km(app)

Sample answers from the record:
CC(C)NC(=O)[C@H]1CC[C@@H](n2/c(=N/C(=O)c3cccc(C(F)(F)F)c3)[nH]c3ccc(CN4CCC(C(C)(C)O)CC4)cc32)CC1
680 nM
CC(C)NC(=O)[C@H]1CC[C@@H](n2/c(=N/C(=O)c3cc(F)cc(F)c3)[nH]c3ccc(CN4CCC(C(C)(C)O)CC4)cc32)CC1
357 nM
CC(C)NC(=O)[C@H]1CC[C@@H](n2/c(=N/C(=O)c3ccc(F)cc3)[nH]c3ccc(CN4CCC(C(C)(C)O)CC4)cc32)CC1
276 nM

We next turn to a different compound, shown below.
(Q) Answer with reported Km of CC(C)NC(=O)[C@H]1CC[C@@H](n2/c(=N/C(=O)c3cc(F)cc(Cl)c3)[nH]c3ccc(CN4CCC(C(C)(C)O)CC4)cc32)CC1
(A) 146 nM

###

Test: Oral bioavailability in CD-1 mouse at 20 mg/kg administered through gavage by LC-MS/MS analysis relative to 2 mg/kg, iv dose
Format: ADME, organism-based
Experimental conditions: in vivo
Experimental endpoint: bioavailability (%)
One number for each entry, in %.

(Q) // Input: CC(C)NC(=O)[C@H]1CC[C@@H](n2/c(=N/C(=O)c3ccc(F)cc3)[nH]c3ccc(CN4CCC(C(C)(C)O)CC4)cc32)CC1 . Output its bioavailability only.
(A) 21.1
